So I've got a bunch of molecules here, and I need their pIC50 values.
system: SK-BR-3; assay: In vitro cytotoxicity (CCK-8) in SK-BR-3 cells; format: cell-based; details: Homo sapiens, SK-BR-3 cell line, 120 hours incubation
Square brackets hold non-standard residues; d marks the D form. Peptide text beside a SMILES is read from it. * marks the point of attachment. Dolaproine = CO[C@@H]([C@@H]1CCCN1)[C@@H](C)C(=O)O; Phe(βS-OH) = N[C@H](C(=O)O)[C@@H](O)c1ccccc1; Dil = CC[C@H](C)[C@H](NC)[C@@H](CC(=O)O)OC; X2 = CSCCN(C)[C@H](C(=O)*)C(C)C
Please keep in mind that pIC50 is minus log10 of the molar concentration; only the number is needed.

Ask: Would you mind telling me what pIC50 value was observed for "CC[C@H](C)[C@@H]([C@@H](CC(=O)N1CCC[C@H]1[C@H](OC)[C@@H](C)C(=O)N[C@H](C)[C@@H](O)c1ccccc1)OC)N(C)C(=O)[C@@H](NC(=O)[C@H](C(C)C)N(C)CCS)C(C)C" ?
Result: 8.77

Ask: Next record, please: CC[C@H](C)[C@@H]([C@@H](CC(=O)N1CCC[C@H]1[C@H](OC)[C@@H](C)C(=O)N[C@H](C(=O)O)[C@@H](O)c1ccccc1)OC)N(C)C(=O)[C@@H](NC(=O)[C@H](C(C)C)N(C)CCSC)C(C)C (X2-V[Dil][Dolaproine][Phe(βS-OH)]-OH)
Result: 7.87

Ask: Next record, please: "CC[C@@]1(O)C(=O)OCc2c1cc1n(c2=O)Cc2cc3c(CCCCO)c(C)c(F)cc3nc2-1"
Result: 10.85

Ask: Next record, please: "CC[C@H](C)[C@@H]([C@@H](CC(=O)N1CCC[C@H]1[C@H](OC)[C@@H](C)C(=O)N[C@H](C)[C@@H](O)c1ccccc1)OC)N(C)C(=O)[C@@H](NC(=O)[C@H](C(C)C)N(C)CCSC)C(C)C"
Result: 9.39
